Test system: OVCAR-5 ovarian
procedure_details: NCI-60 one-dose screen, 48 h (100 = growth as untreated, 0 = no growth, -100 = all killed)
particulars: 10 µM unless noted
Compounds without any hit were thinned out: in the full panel of roughly 83,000, 20% have a hit.
Measured growth values are reported for all entries that follow.
The reply should contain only the number, in %.

Please review the following examples before continuing.
Challenge: Record O=c1c2cc(F)ccc2sc2c(NCCN3CCCC3)nc3ccccc3c12 : what is its growth with OVCAR-5 ovarian?
Response given: 72.1

Challenge: Let us now turn to COc1ccc(-c2nc(-c3ccccn3)c(-c3ccccn3)n2CC(C)C)cc1OC1CCCC1
Response given: 33.8

Challenge: Next compound: Oc1c(C(Nc2ccccn2)c2cccc(Oc3ccccc3)c2)ccc2cccnc12 (centres undefined)
Response given: -84.1

New cases:
Challenge: Lab note: need growth with OVCAR-5 ovarian for entry N#Cc1c(N)nc2c(c1N)C(c1ccc(F)cc1)c1ccc(N)cc1O2 (centres undefined) , please look it up.
Response given: 99.1
